Please provide measured fold change of Tryptamine concentration for the entries that follow.
- System: Ruminococcus gnavus DSM 108212
- assay-overview: fold change of Tryptamine concentration vs plate DMSO controls (fold change (ratio)); higher = more amine produced, active = hit call of the paper (significant change in both replicates, either direction)
- condition-context: incubation time: 27 h, anaerobic, 37 °C
Counter-ions that a name gives are not always drawn.
Give bare numbers.

Example entries and their recorded answers appear below.
{"compound": "NS(=O)(=O)c1cc(C(=O)NN2C[C@@H]3[C@H]4CC[C@H](C4)[C@@H]3C2)ccc1Cl [Tripamide] (20 µM)", "assay-target": "Ruminococcus gnavus DSM 108212", "recorded-value": 1.06}
{"compound": "O=S(=O)(O)NC1CCCCC1 [Cyclamic acid] (50 µM)", "assay-target": "Ruminococcus gnavus DSM 108212", "recorded-value": 1.01}
{"compound": "C=C1[C@H](CO)[C@@H](O)C[C@@H]1n1cnc2c(=O)[nH]c(N)nc21 [Entecavir] (20 µM)", "assay-target": "Ruminococcus gnavus DSM 108212", "recorded-value": 0.999}

Would you mind giving fold change of Tryptamine concentration for every compound in the list below?
1. O=C1CC[C@@H](C(=O)N2CSC[C@H]2C(=O)O)N1 [Pidotimod] (20 µM)
2. CCN(CC)CCOC(=O)C(Cc1cccc2ccccc12)CC1CCCO1 (stereo not drawn) [Nafronyl oxalate] (20 µM)
3. C[C@H](CCC(=O)O)[C@H]1CC[C@H]2[C@@H]3[C@@H](O)C[C@@H]4C[C@H](O)CC[C@]4(C)[C@H]3CC[C@]12C [Urosiol] (20 µM)
4. OC(CCN1CCCCC1)(c1ccccc1)c1ccccc1 [Pridinol methanesulfonate salt] (20 µM)
5. Cc1cccc(C)c1NC(=O)CN1CCN(CCCC(c2ccc(F)cc2)c2ccc(F)cc2)CC1 [Lidoflazine] (20 µM)

// result
1.02
1.01
1.08
1.05
0.863

* * *

- Test system: Ruminococcus gnavus DSM 108212
- assay-overview: fold change of 2-Phenylethylamine concentration vs plate DMSO controls (fold change (ratio)); higher = more amine produced, active = hit call of the paper (significant change in both replicates, either direction);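 for the amine columns active = adjusted P below 0.05 in both replicates with a change the same way and a mean fold change under 0.8 or over 1.25; inactive = the rest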
- condition-context: incubation time: 27 h, anaerobic, 37 °C
Where a name gives a salt, the structure may show the parent alone.
Bench note: report the call from TRUE for active, FALSE for inactive

{"compound": "COc1cccc2c1C(=O)c1c(O)c3c(c(O)c1C2=O)C[C@@](O)(C(=O)CO)C[C@@H]3O[C@H]1C[C@H](N)[C@@H](O)[C@H](C)O1 [Epirubicin hydrochloride] (20 µM)", "assay-target": "Ruminococcus gnavus DSM 108212", "class": "FALSE"}

// query Outcome logged for CCn1cc(C(=O)O)c(=O)c2cc(F)c(N3CCNCC3)cc21 [Norfloxacin] (20 µM) in this assay:
// result FALSE

// query Which outcome did this test record for the compound CN1CCN(CCCN2c3ccccc3Sc3ccc(C(F)(F)F)cc32)CC1 [Trifluoperazine dihydrochloride] (20 µM) ?
// result FALSE

// query Fill in: this test's call for CC(COc1ccccc1)NC(C)C(O)c1ccc(O)cc1 (configuration not stated) [Isoxsuprine hydrochloride] (20 µM) is ___
// result FALSE

// query # outcome recorded in this test, key = CCN(CC)CCOC(=O)c1ccc(N)cc1 [Procaine hydrochloride] (20 µM)
// result FALSE

// query GET /call?item= Oc1c(Cl)cc(Cl)c(Cl)c1Cc1c(O)c(Cl)cc(Cl)c1Cl [Hexachlorophene] (20 µM) returns the recorded outcome of this test.
// result TRUE

// query Recorded test call requested for OC(CNCC(O)C1CCc2cc(F)ccc2O1)C1CCc2cc(F)ccc2O1 (configuration not stated) [Nebivolol hydrochloride] (20 µM)
// result FALSE

# credit: the supplement of paper PMC12494721
